Test system: human IgG-Fc
procedure-text: Cellulose-immobilized 13-mer peptide variants incubated with human IgG-Fc, anti-human IgG-AP detection
Type: binding
Set-up: key: No binding of immunoglobulin for the defined peptide variant, detection negative: 0; Binding of immunoglobulin for the defined peptide variant, detection positive: +
study-conditions: IgG-Fc 1 μg/ml in blocking buffer, 3 h room temperature
Bridge positions count the residues as written; N and C are the ends. Ends that are not written are not given here. cellulose = not defined here; βAla = NCCC(=O)O
Each item that follows carries a reported Result for incubation with human IgG-Fc (immunoglobulin binding detection).
property-label: Result for incubation with human IgG-Fc (immunoglobulin binding detection)

[[record]]
substance = "12F: cellulose-bound 13-mer variant DCAWHLGELVWFT-(βA)(βA) (DCAWHLGELVWFT-{βAla-βAla-cellulose}; not fully specified; printed as DCAWHLGELVWFT-(βA)(βA); reading uncertain)"
target_under_test = "human IgG-Fc"
value = 0

[[record]]
substance = "11D: cellulose-bound 13-mer variant DCAWHLGELVDCT-(βA)(βA) (DCAWHLGELVDCT-{βAla-βAla-cellulose}; disulfide 2-12 (inferred); reading uncertain; also: printed as DCAWHLGELVDCT-(βA)(βA))"
target_under_test = "human IgG-Fc"
value = 0

[[record]]
substance = "03W: cellulose-bound 13-mer variant DCWWHLGELVWCT-(βA)(βA) (DCWWHLGELVWCT-{βAla-βAla-cellulose}; disulfide 2-12 (inferred); reading uncertain; also: printed as DCWWHLGELVWCT-(βA)(βA))"
target_under_test = "human IgG-Fc"
value = 0


====

System: serum albumin
procedure-text: Cellulose-immobilized 13-mer peptide variants incubated with serum albumin (negative control), anti-human IgG-AP detection
Type: binding
Parameters: key: No binding of immunoglobulin for the defined peptide variant, detection negative: 0; Binding of immunoglobulin for the defined peptide variant, detection positive: +
study-conditions: blocking buffer without addition, 3 h room temperature
Bridge positions count the residues as written; N and C are the ends. Square brackets hold non-standard residues; d marks the D form. Ends that are not written are not given here. βAla = NCCC(=O)O
Each item that follows carries a reported Result for incubation with serum albumin (immunoglobulin binding detection).
property-label: Result for incubation with serum albumin (immunoglobulin binding detection)

[[record]]
substance = "02N: cellulose-bound 13-mer variant DNAWHLGELVWCT-(βA)(βA) (DNAWHLGELVWCT[βAla][βAla]; not fully specified; printed as DNAWHLGELVWCT-(βA)(βA); also: cellulose-bound)"
value = 0

[[record]]
substance = "05A: cellulose-bound 13-mer variant DCAWALGELVWCT-(βA)(βA) (disulfide 2-12 (inferred); not fully specified (N-terminus, C-terminus); printed as DCAWALGELVWCT-(βA)(βA); also: cellulose-bound)"
value = 0


====

Tested on: immunoglobulins in human plasma
procedure-text: Cellulose-immobilized 13-mer peptide variants incubated with human plasma, anti-human IgG-AP detection
Type: binding
Design: key: No binding of immunoglobulin for the defined peptide variant, detection negative: 0; Binding of immunoglobulin for the defined peptide variant, detection positive: +
study-conditions: human plasma as sample, diluted 1:10,000 in blocking buffer, 3 h room temperature
Protocol: Peptides consisting of 13 amino acids were synthesized by solid phase synthesis (Houghten, 1985) on a cellulose matrix with (βA)(βA) as a spacer group. The immobilized peptides were tested for their immunoglobulin binding capability by incubation with human IgG-Fc in a buffered solution and by incubation with human plasma. […]
Bridge positions count the residues as written; N and C are the ends. Ends that are not written are not given here. cellulose = not defined here; βAla = NCCC(=O)O
property-label: Result for incubation with human plasma (immunoglobulin binding detection)

[[record]]
substance = "10N: cellulose-bound 13-mer variant DCAWHLGELNWCT-(βA)(βA) (DCAWHLGELNWCT-{βAla-βAla-cellulose}; disulfide 2-12 (inferred); reading uncertain; also: printed as DCAWHLGELNWCT-(βA)(βA))"
value = 0


====

Tested on: immunoglobulins in human plasma
procedure-text: Cellulose-immobilized 13-mer peptide variants incubated with human plasma, anti-human IgG-AP detection
Type: binding
Design: key: No binding of immunoglobulin for the defined peptide variant, detection negative: 0; Binding of immunoglobulin for the defined peptide variant, detection positive: +
study-conditions: human plasma as sample, diluted 1:10,000 in blocking buffer, 3 h room temperature
Bridge positions count the residues as written; N and C are the ends. Square brackets hold non-standard residues; d marks the D form. Ends that are not written are not given here. cellulose = not defined here; βAla = NCCC(=O)O
property-label: Result for incubation with human plasma (immunoglobulin binding detection)

[[record]]
substance = "04L: cellulose-bound 13-mer variant DCALHLGELVWCT-(βA)(βA) (DCALHLGELVWCT[βAla][βAla]; disulfide 2-12 (inferred); also: cellulose-bound)"
target_under_test = "immunoglobulins in human plasma"
value = 0

[[record]]
substance = "03L: cellulose-bound 13-mer variant DCLWHLGELVWCT-(βA)(βA) (DCLWHLGELVWCT-{βAla-βAla-cellulose}; disulfide 2-12 (inferred); reading uncertain; also: printed as DCLWHLGELVWCT-(βA)(βA))"
target_under_test = "immunoglobulins in human plasma"
value = 0


====

Each item that follows carries a reported Result for incubation with serum albumin (immunoglobulin binding detection).
Test system: serum albumin
procedure-text: Cellulose-immobilized 13-mer peptide variants incubated with serum albumin (negative control), anti-human IgG-AP detection
Type: binding
Set-up: key: No binding of immunoglobulin for the defined peptide variant, detection negative: 0; Binding of immunoglobulin for the defined peptide variant, detection positive: +
study-conditions: blocking buffer without addition, 3 h room temperature
Bridge positions count the residues as written; N and C are the ends. Square brackets hold non-standard residues; d marks the D form. Ends that are not written are not given here. cellulose = not defined here; βAla = NCCC(=O)O
property-label: Result for incubation with serum albumin (immunoglobulin binding detection)

[[record]]
substance = "11L: cellulose-bound 13-mer variant DCAWHLGELVLCT-(βA)(βA)"
value = 0

[[record]]
substance = "12H: cellulose-bound 13-mer variant DCAWHLGELVWHT-(βA)(βA) (DCAWHLGELVWHT-{βAla-βAla-cellulose}; not fully specified; printed as DCAWHLGELVWHT-(βA)(βA); reading uncertain)"
value = 0

[[record]]
substance = "07Q: cellulose-bound 13-mer variant DCAWHLQELVWCT-(βA)(βA) (DCAWHLQELVWCT-{βAla-βAla-cellulose}; disulfide 2-12 (inferred); not fully specified (N-terminus); printed as DCAWHLQELVWCT-(βA)(βA); reading uncertain)"
value = 0

[[record]]
substance = "05P: cellulose-bound 13-mer variant DCAWPLGELVWCT-(βA)(βA) (disulfide 2-12 (inferred); not fully specified (N-terminus, C-terminus); printed as DCAWPLGELVWCT-(βA)(βA); also: cellulose-bound)"
value = 0

[[record]]
substance = "01D: starting 13-mer DCAWHLGELVWCT-(βA)(βA), R1=amino, cellulose-bound"
value = 0

[[record]]
substance = "10Q: cellulose-bound 13-mer variant DCAWHLGELQWCT-(βA)(βA) (DCAWHLGELQWCT-{βAla-βAla-cellulose}; disulfide 2-12 (inferred); reading uncertain; also: printed as DCAWHLGELQWCT-(βA)(βA))"
value = 0

[[record]]
substance = "05Q: cellulose-bound 13-mer variant DCAWQLGELVWCT-(βA)(βA) (disulfide 2-12 (inferred); not fully specified (N-terminus, C-terminus); printed as DCAWQLGELVWCT-(βA)(βA); also: cellulose-bound)"
value = 0

[[record]]
substance = "11M: cellulose-bound 13-mer variant DCAWHLGELVMCT-(βA)(βA)"
value = 0

[[record]]
substance = "11V: cellulose-bound 13-mer variant DCAWHLGELVVCT-(βA)(βA)"
value = 0

[[record]]
substance = "06G: cellulose-bound 13-mer variant DCAWHGGELVWCT-(βA)(βA) (DCAWHGGELVWCT[βAla][βAla]; disulfide 2-12 (inferred); not fully specified (N-terminus); printed as DCAWHGGELVWCT-(βA)(βA); also: cellulose-bound)"
value = 0


====

Each item that follows carries a reported Result for incubation with human IgG-Fc (immunoglobulin binding detection).
Test system: human IgG-Fc
procedure-text: Cellulose-immobilized 13-mer peptide variants incubated with human IgG-Fc, anti-human IgG-AP detection
Assay type: binding
Set-up: key: No binding of immunoglobulin for the defined peptide variant, detection negative: 0; Binding of immunoglobulin for the defined peptide variant, detection positive: +
study-conditions: IgG-Fc 1 μg/ml in blocking buffer, 3 h room temperature
Bridge positions count the residues as written; N and C are the ends. Ends that are not written are not given here. cellulose = not defined here; βAla = NCCC(=O)O
property-label: Result for incubation with human IgG-Fc (immunoglobulin binding detection)

[[record]]
substance = "09N: cellulose-bound 13-mer variant DCAWHLGENVWCT-(βA)(βA) (DCAWHLGENVWCT-{βAla-βAla-cellulose}; disulfide 2-12 (inferred); reading uncertain; also: printed as DCAWHLGENVWCT-(βA)(βA))"
target_under_test = "human IgG-Fc"
value = 0

[[record]]
substance = "12A: cellulose-bound 13-mer variant DCAWHLGELVWAT-(βA)(βA) (DCAWHLGELVWAT-{βAla-βAla-cellulose}; not fully specified; printed as DCAWHLGELVWAT-(βA)(βA); reading uncertain)"
target_under_test = "human IgG-Fc"
value = 0

[[record]]
substance = "03I: cellulose-bound 13-mer variant DCIWHLGELVWCT-(βA)(βA) (DCIWHLGELVWCT-{βAla-βAla-cellulose}; disulfide 2-12 (inferred); reading uncertain; also: printed as DCIWHLGELVWCT-(βA)(βA))"
target_under_test = "human IgG-Fc"
value = 0

